Molecular target: Adenosine receptor A1 (Rattus norvegicus, UniProt P25099)
Sequence (P25099 whole entry): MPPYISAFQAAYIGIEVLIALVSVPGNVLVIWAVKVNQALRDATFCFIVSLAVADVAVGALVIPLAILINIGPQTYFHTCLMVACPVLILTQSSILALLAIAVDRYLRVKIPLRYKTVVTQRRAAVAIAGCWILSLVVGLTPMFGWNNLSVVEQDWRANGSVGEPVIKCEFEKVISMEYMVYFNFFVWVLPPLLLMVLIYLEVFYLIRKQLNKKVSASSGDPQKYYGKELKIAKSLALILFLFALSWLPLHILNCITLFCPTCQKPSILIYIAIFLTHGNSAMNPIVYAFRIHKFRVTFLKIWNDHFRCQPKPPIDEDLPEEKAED
Test: Inhibition of [3H]CHA binding to Adenosine A1 receptor in rat cerebral cortical membranes
Below: a set of entries, each annotated with reported IC50.
Give the value in µM but do not write µM after it.

Examples with their reported IC50 follow.
{"columns": ["smiles_code", "target_desc", "numeric_result"],
 "data": [
  ["CCCn1c(=O)n(C)c(=O)c2cnn(-c3ccccc3)c21", "Adenosine receptor A1 (Rattus norvegicus, UniProt P25099)", 35],
  ["Cn1c(=O)c2cnn(-c3ccccc3)c2n(C)c1=O", "Adenosine receptor A1 (Rattus norvegicus, UniProt P25099)", 33]
]}

Here is the next item to consider.
Input line: IC50 for COc1nc2c(cnn2-c2ccccc2)c(=O)n1C ?
Output line: 4.8
